src = ChEMBL document CHEMBL1201862

test system: DLD-1; assay: NCI tumour cell line growth inhibition, 48 h
The source made the active and inactive calls. Rule as the data show it: active = GI50 up to about 1.1 µM and inactive = higher.
Listing of entries alongside the reported GI50.
readout-kind: GI50

[
  {
    "compound": "CNS(=O)(=O)NN(C)S(=O)(=O)c1ccc(C)cc1",
    "recorded-measurement": "> 100 µM (inactive)"
  },
  {
    "compound": "COC(OC)c1cc2c(cc1C=O)OCO2",
    "recorded-measurement": "34.9 µM (inactive)"
  },
  {
    "compound": "CC(C)(C)/N=C1/CC(C)(C)c2ccccc2/C(=N\\c2ccccc2)S1",
    "recorded-measurement": "26.3 µM (inactive)"
  },
  {
    "compound": "CCOC(=O)C1=C(Nc2ccc(Cl)c(Cl)c2)OC/C1=N\\NC(=O)Cc1ccccc1",
    "recorded-measurement": "> 100 µM (inactive)"
  },
  {
    "compound": "O=C1C[C@H]2CC3(CC[C@H]2CN1)OCCO3",
    "recorded-measurement": "> 100 µM (inactive)"
  },
  {
    "compound": "C=C(C)C1Cc2c(cc(OC)c3c(=O)c4ccccc4n(C)c23)O1 (stereo unspecified)",
    "recorded-measurement": "> 100 µM (inactive)"
  },
  {
    "compound": "CCOc1cc(/C=C/C=C/c2ccc(N(C)C)cc2)[s+]c2ccccc12",
    "recorded-measurement": "23.9 µM (inactive)"
  },
  {
    "compound": "O=C1CCCCC1S(=O)(=O)c1ccccc1 (stereo unspecified)",
    "recorded-measurement": "> 100 µM (inactive)"
  },
  {
    "compound": "C#CCOCn1cnc2c(N)ncnc21",
    "recorded-measurement": "> 100 µM (inactive)"
  },
  {
    "compound": "Cc1nc2c(=O)[nH]c(=O)n(C)c2[nH]c1=O.c1ccncc1",
    "recorded-measurement": "> 100 µM (inactive)"
  },
  {
    "compound": "O=C1[C@H]2ON(c3ccccc3)C(c3ccc(Cl)cc3Cl)[C@H]2C(=O)N1c1ccc(Cc2ccc(N3C(=O)[C@@H]4ON(c5ccccc5)C(c5ccc(Cl)cc5Cl)[C@@H]4C3=O)cc2)cc1 (stereo partly specified)",
    "recorded-measurement": "> 100 µM (inactive)"
  }
]

====

test system: SN12C; assay: NCI tumour cell line growth inhibition, 48 h
Activity calls are given as the source filed them. No stated cut-off is given here; in the data, active = GI50 up to about 1.1 µM and inactive = higher.
Outcome codes: true for active, false for inactive

[
  {
    "compound": "O=C(O)c1c2c(cc3c1CC1(Cc4cc5c(cc4C1=O)CCC5)C3)CCC2 (configuration not stated)",
    "tested-on": "SN12C",
    "category-label": "false"
  },
  {
    "compound": "O=C1/C(=C/c2ccc(Cl)cc2)CCC/C1=C\\c1ccc(O)c(CN2CCCCC2)c1",
    "tested-on": "SN12C",
    "category-label": "false"
  },
  {
    "compound": "Nc1nc(O)c2c(n1)NCN(c1ccc(S(N)(=O)=O)cc1)C2",
    "tested-on": "SN12C",
    "category-label": "false"
  },
  {
    "compound": "O=S(=O)(O)c1ccc(Nc2ccnc3cc(Cl)ccc23)cc1",
    "tested-on": "SN12C",
    "category-label": "false"
  },
  {
    "compound": "N/C(=N/c1ccc(O)cc1)S(=O)O",
    "tested-on": "SN12C",
    "category-label": "false"
  },
  {
    "compound": "OC[C@H]1CCCC1O (some centres not stated)",
    "tested-on": "SN12C",
    "category-label": "false"
  },
  {
    "compound": "CNC(=O)CCCNC(=O)CCCC(=O)OC",
    "tested-on": "SN12C",
    "category-label": "false"
  },
  {
    "compound": "CCOC(=O)NC(Nc1ccc(C(=O)O)cc1)(C(F)(F)F)C(F)(F)F",
    "tested-on": "SN12C",
    "category-label": "false"
  },
  {
    "compound": "CC(C)OP(=O)(OC(C)C)C(C(F)(F)F)C(F)(F)F",
    "tested-on": "SN12C",
    "category-label": "false"
  },
  {
    "compound": "COC(=O)c1c(C(=O)OC)c2ccc(-c3ccc(Cl)cc3)nn2c1C(=O)c1ccc([N+](=O)[O-])cc1",
    "tested-on": "SN12C",
    "category-label": "false"
  },
  {
    "compound": "O=C(NC(Cc1ccccc1)C(=O)CCl)OCc1ccccc1 (configuration not stated)",
    "tested-on": "SN12C",
    "category-label": "false"
  },
  {
    "compound": "CC(=O)Nc1nnc(S(C)(=O)=O)s1",
    "tested-on": "SN12C",
    "category-label": "false"
  },
  {
    "compound": "Cc1nc(C)c(N2CCNCC2)c(O)n1",
    "tested-on": "SN12C",
    "category-label": "false"
  },
  {
    "compound": "O=C(O)/C=C/c1ccc(OS(=O)(=O)O)cc1",
    "tested-on": "SN12C",
    "category-label": "false"
  },
  {
    "compound": "Cc1ccc(S(=O)(=O)N2CCCSCCN(S(=O)(=O)c3ccc(C)cc3)CCCSCC2)cc1",
    "tested-on": "SN12C",
    "category-label": "false"
  },
  {
    "compound": "CC(=O)O[C@@H](C1C[C@@H](C)[C@H]2[C@@](O)(O1)[C@H](O)[C@@]1(C)C3=CC[C@H]4C(C)(C)[C@@H](OC5OCC(O)C(O)C5O)CC[C@@]45C[C@@]35CC[C@]21C)C(C)(C)O (some centres not stated)",
    "tested-on": "SN12C",
    "category-label": "false"
  },
  {
    "compound": "COc1ccc(N2C=Nn3c(nc4sc5c(c4c3=O)CCCC5)C2)cc1",
    "tested-on": "SN12C",
    "category-label": "false"
  },
  {
    "compound": "CCOC(=O)c1ccc(NC(=O)O/N=C(/Cl)C(C)C)cc1",
    "tested-on": "SN12C",
    "category-label": "false"
  },
  {
    "compound": "COC(=O)C1CCC(=O)N1C(c1ccc(OC)cc1)c1cc(OC)c(OC)c(OC)c1 (configuration not stated)",
    "tested-on": "SN12C",
    "category-label": "true"
  },
  {
    "compound": "COc1cc2c3c(c1OC)Oc1ccc(cc1)CC1c4c(cc(OC)c(OC)c4Oc4ccc(cc4)CC3N(C)CC2)CCN1C (configuration not stated)",
    "tested-on": "SN12C",
    "category-label": "false"
  },
  {
    "compound": "CSc1c([S+](C)[O-])c2ccccc2n1C (configuration not stated)",
    "tested-on": "SN12C",
    "category-label": "false"
  },
  {
    "compound": "c1ccc(-c2ccnc3c2ccc2c(-c4ccccc4)ccnc23)cc1",
    "tested-on": "SN12C",
    "category-label": "false"
  }
]

====

test system: IGROV-1; assay: NCI tumour cell line growth inhibition, 48 h
Activity calls are given as the source filed them. Rule as the data show it: active = GI50 up to about 1.1 µM and inactive = higher.
readout-kind: GI50

[
  {
    "compound": "COCN1C(=O)[C@@H]2CCCN2C(=O)c2ccc(N)cc21",
    "recorded-measurement": "> 100 µM (inactive)"
  },
  {
    "compound": "O=C(C[n+]1ccc2ccccc2c1)c1ccc2ccc3ccccc3c2c1",
    "recorded-measurement": "2.23 µM (inactive)"
  },
  {
    "compound": "COc1ccc(C2C3CCc4ccccc4C3=NN2S(=O)(=O)c2ccc(Cl)cc2)cc1 (stereo not given)",
    "recorded-measurement": "2.61 µM (inactive)"
  },
  {
    "compound": "COc1ccc(-c2onc(-c3c(C)cc(C)cc3C)c2C2=NCCN2)cc1",
    "recorded-measurement": "> 100 µM (inactive)"
  },
  {
    "compound": "Nc1ncnc2c1ncn2[C@@H]1O[C@H](C(=O)O)[C@@H](O)[C@H]1O",
    "recorded-measurement": "> 100 µM (inactive)"
  },
  {
    "compound": "S=C(c1c[nH]c2ccccc12)N1CCOCC1",
    "recorded-measurement": "36.3 µM (inactive)"
  },
  {
    "compound": "NC(Cc1ccc2oc3cc(=O)c4ccccc4c-3nc2c1)C(=O)O (stereo not given)",
    "recorded-measurement": "68.2 µM (inactive)"
  },
  {
    "compound": "CCCCCOc1ccc(/C=N\\c2ccc(-c3ccc(/N=C\\c4ccc(OCCCCC)cc4)c(OC)c3)cc2OC)cc1",
    "recorded-measurement": "> 100 µM (inactive)"
  },
  {
    "compound": "N#CC(C#N)=Cn1c(=S)[nH]c2ccccc21",
    "recorded-measurement": "> 100 µM (inactive)"
  },
  {
    "compound": "OCC1OC(NC(=S)NCSCCC(F)(F)C(F)(F)C(F)(F)C(F)(F)C(F)(F)C(F)(F)F)C(O)C(O)C1O (stereo not given)",
    "recorded-measurement": "31.8 µM (inactive)"
  }
]
